- System: E31 (patient-derived glioblastoma stem cells of proneural subtype);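 further: nuclei counted by high-content imaging of Hoechst-stained cells in laminin-coated 384-well plates, relative to 0.1% DMSO vehicle wells, with staurosporine as cell-death control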
- Assay details: surviving fraction (nuclei count normalised to DMSO); higher = more cells surviving (less toxic)
- Run parameters: 12.3 nM; exposure time: 72 h
Structures can show the parent of a compound that is named as a salt.
Param threshold (0.9) applies to surviving fraction; output Yes when value >= threshold, No when value < threshold.

Task: Given the entry Nc1ccn([C@@H]2O[C@H](CO)[C@@H](O)C2(F)F)c(=O)n1 [Gemcitabine HCl] , answer whether its surviving fraction meets or surpasses 0.9.
Output: No

Task: // inclusive: surviving fraction at least 0.9? input: NC(=O)c1ccccc1 [Benzamide]
Output: Yes

Task: Is surviving fraction at least 0.9? Consider NCCCP(=O)(O)O
Output: Yes
